Hi there, I'd appreciate the recorded clearance for every entry that follows.
test-details: Clearance in rat at 0.5 mg/kg, iv
Assay type: ADME, organism-based
experimental-conditions: in vivo
Answers are plain numbers, in mL/min/kg.

Use these answered entries as a reference point.
- smiles-string: "C[C@H]1CN(c2nc3ccc(C(F)(F)F)cc3s2)CCN1CCOc1cc(CC(=O)O)ccc1Cl"
  clearance (mL/min/kg): 45.6
- smiles-string: "Cc1cc(CC(=O)O)cc(CN2CCN(c3nc4ccc(C(F)(F)F)cc4s3)[C@@H](C(C)C)C2)c1"
  clearance (mL/min/kg): 0.31
- smiles-string: "CC[C@H]1CN(c2nc3ccc(C(F)(F)F)cc3s2)CCN1CCOc1cc(CC(=O)O)ccc1Cl"
  clearance (mL/min/kg): 21.5

# ---- query compound ----
Request: Record request: clearance value, item Cc1cc(CC(=O)O)cc(CN2CCN(c3nc4ccc(C(F)(F)F)cc4s3)[C@H](CC(C)C)C2)c1
Result: 1.47

* * *

measured-target: Peroxisome proliferator-activated receptor delta (Mus musculus) (UniProt P35396)
Sequence (P35396 whole entry, the tested form may be a part): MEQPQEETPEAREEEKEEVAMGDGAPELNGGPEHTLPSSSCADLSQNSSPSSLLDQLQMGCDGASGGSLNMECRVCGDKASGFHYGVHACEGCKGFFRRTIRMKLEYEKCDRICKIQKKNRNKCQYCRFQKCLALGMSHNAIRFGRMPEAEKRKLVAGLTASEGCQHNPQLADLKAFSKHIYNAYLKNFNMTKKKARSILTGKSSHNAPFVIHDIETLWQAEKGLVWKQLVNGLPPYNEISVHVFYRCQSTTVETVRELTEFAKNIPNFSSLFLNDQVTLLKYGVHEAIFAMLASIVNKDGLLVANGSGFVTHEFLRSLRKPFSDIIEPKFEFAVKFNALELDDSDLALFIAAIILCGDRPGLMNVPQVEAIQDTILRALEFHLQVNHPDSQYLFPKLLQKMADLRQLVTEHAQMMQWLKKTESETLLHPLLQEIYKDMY
test-details: Agonist activity at Gal4-fused mouse PPAR-delta ligand binding domain expressed in CHO-K1 cells assessed as receptor transactivation incubated for 24 to 48 hrs by luciferase reporter gene assay relative to control
Format: cell-based
experimental-conditions: time lower 24.0 hrs, time upper […]
Hi there, I'd appreciate the recorded Emax for every entry that follows.
Numbers only, in %.

- compound: "C[C@H]1CN(CCOc2cc(CC(=O)O)ccc2Cl)CCN1c1nc2ccc(Cl)cc2s1"
  Emax / %: 27.9
- compound: "C[C@H]1CN(c2nc3ccc(Cl)cc3s2)CCN1CCOc1cc(CC(=O)O)ccc1Cl"
  Emax / %: 23.2
- compound: "Cc1ccc(CC(=O)O)cc1OCCN1CCN(c2nc3ccc(Cl)cc3s2)CC1"
  Emax / %: 25.3

Hi team, please reply with Emax for each item in this list.
1. Cc1cc(CC(=O)O)cc(CN2CCN(c3nc4ccc(C(F)(F)F)cc4s3)[C@@H](C(C)C)C2)c1
2. C[C@@H]1CN(CCOc2cc(CC(=O)O)ccc2Cl)CCN1c1nc2ccc(Cl)cc2s1
3. Cc1cc(CC(=O)O)cc(CN2CCN(c3nc4ccc(C(F)(F)F)cc4s3)[C@H](C(C)C)C2)c1
4. CC[C@@H]1CN(Cc2cc(C)cc(CC(=O)O)c2)CCN1c1nc2ccc(C(F)(F)F)cc2s1
5. C[C@@H]1CN(c2nc3ccc(Cl)cc3s2)CCN1CCOc1cc(CC(=O)O)ccc1Cl
6. CC[C@H]1CN(Cc2cc(C)cc(CC(=O)O)c2)CCN1c1nc2ccc(C(F)(F)F)cc2s1
7. CC[C@H]1CN(c2nc3ccc(Cl)cc3s2)CCC1CCOc1cc(CC(=O)O)ccc1Cl (some centres undefined)

Result:
[25, 27.6, 14.6, 33.1, 28.3, 30.8, 31.3]

* * *

test-details: Oral bioavailability in rat at 1 mg/kg
Type: ADME, organism-based
experimental-conditions: in vivo
Hi there, I'd appreciate the recorded bioavailability for every entry that follows.
Numbers only, in %.

Use these answered entries as a reference point.
- smiles-string: "Cc1cc(CC(=O)O)cc(CN2CCN(c3nc4ccc(C(F)(F)F)cc4s3)[C@@H](C(C)C)C2)c1"
  reading: 85.8
- smiles-string: "CC[C@H]1CN(c2nc3ccc(C(F)(F)F)cc3s2)CCN1CCOc1cc(CC(=O)O)ccc1Cl"
  reading: 18.9
- smiles-string: "Cc1cc(CC(=O)O)cc(CN2CCN(c3nc4ccc(C(F)(F)F)cc4s3)[C@H](CC(C)C)C2)c1"
  reading: 62.9

# ---- query compound ----
Request: Record request: bioavailability value, item C[C@H]1CN(c2nc3ccc(C(F)(F)F)cc3s2)CCN1CCOc1cc(CC(=O)O)ccc1Cl
Result: 26.4
